Where do these numbers come from? They come from paper PMC11054528.

Entries and their CHIC18 pH = 10.6 values follow.
assay: Fast gradient RP-HPLC on C18 column (CHI lipophilicity); format: physicochemical; conditions: C18 column, pH 10.6

[
  {
    "SMILES REPR": "O=C1c2ccccc2S(=O)(=O)N1CCCCCCN1CCN(c2ccc(Cl)c(Cl)c2)CC1",
    "CHIC18 pH = 10.6": 118.39
  },
  {
    "SMILES REPR": "O=C1c2ccccc2S(=O)(=O)N1CCCCCCN1CCN(c2ccccc2F)CC1",
    "CHIC18 pH = 10.6": 104.68
  },
  {
    "SMILES REPR": "COc1ccccc1N1CCN(CCCCCN2C(=O)c3ccccc3S2(=O)=O)CC1",
    "CHIC18 pH = 10.6": 91.77
  },
  {
    "SMILES REPR": "O=C1c2ccccc2S(=O)(=O)N1CCCCCCN1CCN(c2ccc(Cl)cc2)CC1",
    "CHIC18 pH = 10.6": 110.38
  },
  {
    "SMILES REPR": "O=C1c2ccccc2S(=O)(=O)N1CCCCCN1CCN(c2ccccc2)CC1",
    "CHIC18 pH = 10.6": 95.60
  },
  {
    "SMILES REPR": "COc1ccc(N2CCN(CCCCCCN3C(=O)c4ccccc4S3(=O)=O)CC2)cc1",
    "CHIC18 pH = 10.6": 96.78
  },
  {
    "SMILES REPR": "O=C1c2ccccc2S(=O)(=O)N1CCCCCN1CCN(c2ccc(Cl)cc2)CC1",
    "CHIC18 pH = 10.6": 100.81
  },
  {
    "SMILES REPR": "O=C1c2ccccc2S(=O)(=O)N1CCCCCN1CCN(c2ccccn2)CC1",
    "CHIC18 pH = 10.6": 84.51
  }
]

====

assay: Fast gradient RP-HPLC on C18 column (CHI lipophilicity); assay type: physicochemical; conditions: from chromatographically determined CHI on nonionized forms (pH 10.6); CHI LogP = 0.054 × CHI − 1.467

[
  {
    "COMPOUND": "O=C1c2ccccc2S(=O)(=O)N1CCCCCN1CCN(c2ccccn2)CC1 [molecule 10]",
    "CHI LogP": 3.10
  },
  {
    "COMPOUND": "O=C1c2ccccc2S(=O)(=O)N1CCCCCCN1CCN(c2cccc(Cl)c2)CC1 [molecule 16]",
    "CHI LogP": 4.58
  },
  {
    "COMPOUND": "O=C1c2ccccc2S(=O)(=O)N1CCCCCCN1CCN(c2nsc3ccccc23)CC1 [molecule 24]",
    "CHI LogP": 4.33
  },
  {
    "COMPOUND": "COc1ccccc1N1CCN(CCCCCCN2C(=O)c3ccccc3S2(=O)=O)CC1 [molecule 13]",
    "CHI LogP": 3.76
  },
  {
    "COMPOUND": "O=C1c2ccccc2S(=O)(=O)N1CCCCCN1CCN(c2ccccc2)CC1 [molecule 5]",
    "CHI LogP": 3.70
  },
  {
    "COMPOUND": "O=C1c2ccccc2S(=O)(=O)N1CCCCCCN1CCN(c2cccc(C(F)(F)F)c2)CC1 [molecule 19]",
    "CHI LogP": 4.69
  },
  {
    "COMPOUND": "COc1cccc(N2CCN(CCCCCCN3C(=O)c4ccccc4S3(=O)=O)CC2)c1 [molecule 14]",
    "CHI LogP": 3.92
  },
  {
    "COMPOUND": "O=C1c2ccccc2S(=O)(=O)N1CCCCCN1CCN(c2ncccn2)CC1 [molecule 9]",
    "CHI LogP": 2.91
  },
  {
    "COMPOUND": "O=C1c2ccccc2S(=O)(=O)N1CCCCCCN1CCN(c2ncccn2)CC1 [molecule 23]",
    "CHI LogP": 3.37
  },
  {
    "COMPOUND": "O=C1c2ccccc2S(=O)(=O)N1CCCCCN1CCN(c2cccc(Cl)c2Cl)CC1 [molecule 7]",
    "CHI LogP": 4.63
  },
  {
    "COMPOUND": "O=C1c2ccccc2S(=O)(=O)N1CCCCCCN1CCN(c2ccccc2)CC1 [molecule 12]",
    "CHI LogP": 3.98
  },
  {
    "COMPOUND": "O=C1c2ccccc2S(=O)(=O)N1CCCCCCN1CCN(c2ccccc2F)CC1 [molecule 20]",
    "CHI LogP": 4.19
  },
  {
    "COMPOUND": "O=C1c2ccccc2S(=O)(=O)N1CCCCCCN1CCN(c2ccccn2)CC1 [molecule 22]",
    "CHI LogP": 3.44
  },
  {
    "COMPOUND": "O=C1c2ccccc2S(=O)(=O)N1CCCCN1CCN(c2ccc(Cl)cc2)CC1 [molecule 4]",
    "CHI LogP": 3.97
  },
  {
    "COMPOUND": "COc1ccc(N2CCN(CCCCCCN3C(=O)c4ccccc4S3(=O)=O)CC2)cc1 [molecule 15]",
    "CHI LogP": 3.76
  },
  {
    "COMPOUND": "O=C1c2ccccc2S(=O)(=O)N1CCCCN1CCN(c2cccc(Cl)c2Cl)CC1 [molecule 3]",
    "CHI LogP": 3.27
  },
  {
    "COMPOUND": "O=C1c2ccccc2S(=O)(=O)N1CCCCCN1CCN(c2cccc3ccccc23)CC1 [molecule 11]",
    "CHI LogP": 4.55
  },
  {
    "COMPOUND": "O=C1c2ccccc2S(=O)(=O)N1CCCCCCN1CCN(c2ccc(Cl)cc2)CC1 [molecule 17]",
    "CHI LogP": 4.49
  }
]
